Tested on: Pancreatic cancer cells (MIAPaCa human cell line)
assay_details: Relative cell number / gemcitabine dose response with glutamine
Format: cell-based
measurement_context: Homo sapiens, MIA PaCa-2, in the presence of 2 mM glutamine (physiologic concentration), MIAPaCa cells
measured_quantity: IC50 (nM)
Only the number, expressed in nM, is required.

Quick check: IC50 on Pancreatic cancer cells (MIAPaCa human cell line), item Nc1ccn([C@@H]2O[C@H](CO)[C@@H](O)C2(F)F)c(=O)n1 ?
666
